Origin of the recorded values: patent US20190233493A1

Molecular target: T1, RXFP1 receptor (UniProt Q9HBX9 1-757, limits assumed)
T1 sequence (looked up): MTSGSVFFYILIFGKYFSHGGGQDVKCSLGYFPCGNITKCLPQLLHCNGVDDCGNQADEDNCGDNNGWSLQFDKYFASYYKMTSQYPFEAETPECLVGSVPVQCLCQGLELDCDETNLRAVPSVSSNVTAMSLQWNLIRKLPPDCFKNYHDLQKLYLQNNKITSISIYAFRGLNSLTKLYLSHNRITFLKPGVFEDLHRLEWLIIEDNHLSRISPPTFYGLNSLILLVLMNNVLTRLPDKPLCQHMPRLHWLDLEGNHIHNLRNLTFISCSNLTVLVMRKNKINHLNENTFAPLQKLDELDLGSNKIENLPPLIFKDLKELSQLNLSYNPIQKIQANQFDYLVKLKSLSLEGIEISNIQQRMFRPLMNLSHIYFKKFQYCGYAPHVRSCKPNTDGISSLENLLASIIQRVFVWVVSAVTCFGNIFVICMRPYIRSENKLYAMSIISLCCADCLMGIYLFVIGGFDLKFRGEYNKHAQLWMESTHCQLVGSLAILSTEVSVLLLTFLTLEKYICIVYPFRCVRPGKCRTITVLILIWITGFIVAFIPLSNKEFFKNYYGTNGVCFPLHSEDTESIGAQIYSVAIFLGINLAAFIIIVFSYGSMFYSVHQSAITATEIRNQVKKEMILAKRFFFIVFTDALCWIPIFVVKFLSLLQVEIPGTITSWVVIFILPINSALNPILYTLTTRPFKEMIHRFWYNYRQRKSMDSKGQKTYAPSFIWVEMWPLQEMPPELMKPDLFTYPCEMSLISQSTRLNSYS
Assay: cell-based or functional assay
*1 amine or outer side, *2 acyl side, *3 side chain or, on linkers, in order; H or OH if unused. Primed or numbered codes have the meaning given here. Side-chain parts run from the residue outwards. [ ]: non-standard residue; d: D form. The star is where a group is joined. Lys(Me3) = C[N+](C)(C)CCCC[C@H](N)C(=O)O; γGlu = O=C(O)[C@H](CCC(=O)[*:2])N[*:1]; Pentadecanoyl = CCCCCCCCCCCCCCC(=O)*; Arg(Me) = CNC(=N)NCCC[C@H](N)C(=O)O; Stearoyl = CCCCCCCCCCCCCCCCCC(=O)*; Palmitoyl = CCCCCCCCCCCCCCCC(=O)*; αMeF = C[C@](N)(Cc1ccccc1)C(=O)O; Cit = NC(=O)NCCC[C@H](N)C(=O)O; αMeK = C[C@](N)(CCCCN)C(=O)O; Nle = CCCC[C@H](N)C(=O)O; PEG2′ = PEG2 spacer unit; PEG2″ = not defined here; Aib = CC(C)(N)C(=O)O
quantity.kind: EMax, OVCAR 5 cells (cAMP) (%)

Ac-LEGREKVRAK(Ac)I[Aib][Aib]EG[Nle]STWS[αMeK]RKK(Ac)K([PEG2′-PEG2′-PEG2′-γGlu-γGlu-γGlu-γGlu-Stearoyl])-NH2 [peptide of SEQ ID NO: 82] = 89
Ac-LEGREKVRAK(Ac)I[Aib][Aib]EG[Nle]ST[αMeF]S[αMeK]RAK(Ac)[PEG2″][PEG2″][PEG2″][PEG2″][γGlu][γGlu][γGlu]K([γGlu-Palmitoyl])-NH2 [peptide of SEQ ID NO: 152] = 91
Ac-LEGREKVRAK(Ac)I[Aib][Aib]EG[Nle]STFS[αMeK]RAK(Ac)[PEG2′][PEG2′][PEG2′][PEG2′]K([γGlu-γGlu-γGlu-γGlu-Pentadecanoyl])-NH2 [peptide of SEQ ID NO: 167] = 93
Ac-LEGREKVRAK(Ac)I[Aib][Aib]EG[Nle]STWS[αMeK][Cit]KK(Ac)K([PEG2′-PEG2′-PEG2′-γGlu-γGlu-γGlu-Stearoyl])-NH2 [peptide of SEQ ID NO: 129] = 89
Ac-LEGREKVRAQI[Aib][Aib]EG[Nle]STWS[Aib]RKKK([PEG2′-PEG2′-PEG2′-γGlu-γGlu-γGlu-γGlu-Stearoyl])-NH2 [peptide of SEQ ID NO: 88] = 74
Ac-LEGREKVRAK(Ac)I[Aib][Aib]EG[Nle]STWS[αMeK]RKK(Ac)K([PEG2″-PEG2″-PEG2″-γGlu-γGlu-γGlu-γGlu-Palmitoyl])-NH2 [peptide of SEQ ID NO: 65] = 93
Ac-LEGREKVRAK(Ac)I[Aib][Aib]EG[Nle]STWS[αMeK][Arg(Me)][Lys(Me3)]K(Ac)K([PEG2′-PEG2′-PEG2′-PEG2′-γGlu-γGlu-γGlu-γGlu-Palmitoyl])-NH2 [peptide of SEQ ID NO: 141] = 87
LEGREKVRAQIXXEGXSTWSXRKKKX (Ac-L-E-G-R-E-K-V-R-A-Q-I-Aib-Aib-E-G-Nle-S-T-W-S-Aib-R-K-K-K-PEG4-PEG4-K(gE-gE-gE-gE-gE-Stea)-NH2) [peptide of SEQ ID NO: 122] = 93
